# Tested on: HOP-92 NSCLC
# PROCEDURE DETAILS: NCI-60 one-dose screen, 48 h (100 = growth as untreated, 0 = no growth, -100 = all killed)
# SETUP CONDITIONS: 10 µM unless noted
Compounds without any hit were thinned out: in the full panel of roughly 83,000, 20% have a hit.
Items are presented alongside their recorded growth.
Write the answer as a number in %, unit excluded.

Some compounds with known growth results, for comparison:
{"COMPOUND": "C#CCOc1ccc(C2=NN(CC3CC3)C3N=C(Cl)c4ncn(CC5CC5)c4N23)cc1OCC#C (centres undefined)", "UOM": "%", "growth": 61.7}
{"COMPOUND": "CN(C)c1cc(NN=C(c2ccc(O)cc2)c2ccc(O)cc2)c([N+](=O)[O-])cc1[N+](=O)[O-]", "UOM": "%", "growth": 73}
{"COMPOUND": "O=C1CN(Cc2ccc(C(=O)NO)cc2)C(=O)[C@@H](Cc2ccccc2)N1", "UOM": "%", "growth": 102}
{"COMPOUND": "CCCCC(CCCCCC(CCCC)C1NC(C)Cc2cc(OC)c(OC)cc21)C1NC(C)Cc2cc(OC)c(OC)cc21 (centres undefined)", "UOM": "%", "growth": -57.8}
{"COMPOUND": "O=C1NC(=O)C(Cc2ccccc2)(Cc2ccccc2)N1", "UOM": "%", "growth": 87.5}
{"COMPOUND": "COc1ccc(NCc2cn(-c3ccc(C(=O)O)cc3)nc2-c2ccc(C(=O)O)cc2)cc1C(F)(F)F", "UOM": "%", "growth": 66.6}

Ask: Tell me its growth given CCOC(=O)c1c[nH]c2cc(OCC3CC3)c(OCC3CC3)cc2c1=O as the entry.
Result: 116

Ask: Tell me its growth given COc1cc(/C=C/C(=O)/C=C/c2ccc(-n3ccnc3)cc2)ccc1O as the entry.
Result: 85.2

Ask: Tell me its growth given Cc1ncc(C(=O)Nc2ccc(CN3CCN(C)CC3)c(C(F)(F)F)c2)cc1C#Cc1c(N)ncc2ccc(C#N)cc12 as the entry.
Result: -8.03

---

Items are presented alongside their recorded growth.
# Test system: HCC-2998 colon
# PROCEDURE DETAILS: NCI-60 one-dose screen, 48 h (100 = growth as untreated, 0 = no growth, -100 = all killed)
# SETUP CONDITIONS: 10 µM unless noted
The panel holds about 83,000 compounds, 20% with a hit somewhere; the sample as a whole holds those more often. The source made the active and inactive calls. Rule for the calls: active = growth percent below 10; inactive = the rest.

Some molecules with known growth results, for comparison:
{"MOLECULE": "C[n+]1cccc(NC(=O)c2ccc3ccc4ccc(C(=O)Nc5ccc[n+](C)c5)nc4c3n2)c1", "RECORDED METRIC": "growth", "OBSERVED RESULT": "42% (inactive)"}
{"MOLECULE": "O=C1/C(=C/c2ccc(OCc3ccccc3)cc2)Oc2cc(OCCN3CCCCC3)ccc21", "RECORDED METRIC": "growth", "OBSERVED RESULT": "90.5% (inactive)"}

Ask: Tell me its growth given CCN(CC)c1ccc2cc(C(Nc3ccc(Cl)cc3)c3nnnn3C(C)(C)C)c(=O)oc2c1 (stereo not drawn) as the entry.
Result: 105% (inactive)

Ask: Tell me its growth given Cc1ccc(NCCN2CCCCC2)c2c(=O)c3ccccc3sc12 as the entry.
Result: 33.3% (inactive)

Ask: Tell me its growth given OC(c1ccc(Cl)cc1)(c1ccc(Cl)cc1)C(O)(c1ccc(Cl)cc1)c1ccc(Cl)cc1 as the entry.
Result: 48.6% (inactive)
